MEASUREMENT DESCRIPTION: Cytotoxicity against human OVCAR5 cells assessed as cell growth at 10 uM after 72 hrs by SRB assay relative to control
Type: functional
CONDITION: OVCAR-5, 72 h, read-out: Activity
READOUT TYPE: growth at 10 µM (%)

1. c1ccc(COc2ccc(Nc3ncnc4c3cnn4-c3ccccc3)cc2)cc1 : 98.9
2. O=c1sc2cc(Nc3ncnc4c3cnn4-c3ccccc3)ccc2n1Cc1ccc(Cl)cc1 : 75.1
3. Clc1ccc(-n2ncc3c(Nc4ccc(OCc5ccccc5)cc4)ncnc32)cc1 : 92.8
4. O=C(NC1CCCCC1)c1ccc(Nc2ncnc3c2cnn3-c2ccccc2)cc1 : 80.3
5. Cc1ccc2nc(Nc3ncnc4c3cnn4-c3ccccc3)sc2c1 : 96

Hello, the source for this data is ChEMBL document CHEMBL3751764, in case you need it.
